- ASSAY_TARGET: T1, human OX40 expressed on the cell surface (human, UniProt P43489 29-277)
- T1 construct: whole, on cells
- T1 sequence (looked up): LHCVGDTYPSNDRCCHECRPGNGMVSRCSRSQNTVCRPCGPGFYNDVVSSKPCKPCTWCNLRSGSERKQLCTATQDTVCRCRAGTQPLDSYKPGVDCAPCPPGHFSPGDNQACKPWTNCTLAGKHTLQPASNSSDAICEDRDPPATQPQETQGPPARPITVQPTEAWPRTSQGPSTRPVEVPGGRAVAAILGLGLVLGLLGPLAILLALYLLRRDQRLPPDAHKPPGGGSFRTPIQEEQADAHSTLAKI
- ASSAY_PROCEDURE: FACS on activated human T cells
PROPERTY: EC50 (nM)
# number only, unit nM dropped from output

INSERT INTO measurements (binder, numeric_readout) VALUES
  ('Hu38E11-v1 (antibody, human IgG1, V domains shown, also called Hu38E11-vl) VH: QVQLVQSGAEVKKPGASVKVSCKASGYTFTSYWVDWVRQAPGQGLEWIGNIYPSDSETHYNQKFKDRVTMTVDTSTSTVYMELSSLRSEDTAVYYCARSYGYYGTWFAYWGQGTLVTVSS VL: DIVMTQSPDSLAVSLGERATINCRASESVDSSGNSFMHWYQQKPGQPPKLLIYRASNLESGIPDRFSGSGSGTDFTLTISSVQAEDVAVYYCQQSNEDPWTFGGGTKLEIK', 5.03),
  ('Hu38E11-v3 (antibody, human IgG1, V domains shown) VH: QVQLVQSGAEVKKPGASVKVSCKASGYTFTSYWVDWVRQAPGQGLEWMGNIYPSDSETHYNQKFKDRVTMTRDTSTSTVYMELSSLRSEDTAVYYCARSYGYYGTWFAYWGQGTLVTVSS VL: DIVMTQSPDSLAVSLGERATINCRASESVDSSGNSFMHWYQQKPGQPPKLLIYRASNLESGIPDRFSGSGSGTDFTLTISSVQAEDVAVYYCQQSNEDPWTFGGGTKLEIK', 3.48);

Next up:
// Hu38E11-v4 (antibody, human IgG1, V domains shown) VH: QVQLVQSGAEVKKPGASVKVSCKASGYTFTSYWVDWVRQAPGQGLEWIGNIYPSDSETHYNQKFKDRVTMTVDTSTSTAYMELSSLRSEDSAVYYCARSYGYYGTWFAYWGQGTLVTVSS VL: DIVMTQSPDSLAVSLGERATINCRASESVDSSGNSFMHWYQQKPGQPPKLLIYRASNLESGIPDRFSGSGSGTDFTLTISSLQAEDVAVYYCQQSNEDPWTFGGGTKLEIK : EC50 value = 3.02

meta.source: patent US20230151105A1
